System: EKVX NSCLC
method notes: NCI tumour cell line growth inhibition, 48 h
measured endpoint: TGI

>>> print(df.to_string())
                                   compound  value_reported
0  CC(=O)OC(Cc1cc(C=C(C(F)(F)F)C(F)(F)F)cc(C)n1)(C(F)(F)F)C(F)(F)F         5.87 µM
1  COc1ccc(N=C2CSc3nnc(-c4cc(F)c(Cl)cc4Cl)n3N2)cc1         41.7 µM
2      O=c1c2ccccc2[nH]c(=S)n1-c1ccc(Br)cc1        > 100 µM

Enquiry: Form field: TGI recorded for COc1cc(-c2nn(-c3ccc(NC(=O)c4ccc(Cl)c(Cl)c4)cc3)cc2-c2ccncc2)ccc1Cl with EKVX NSCLC (enter value)
Return: > 100 µM

Enquiry: Form field: TGI recorded for CC1(C)OC2OC(COC(=O)C=[N+]=[N-])C3OC(C)(C)OC3C2O1 (stereo not drawn) with EKVX NSCLC (enter value)
Return: > 100 µM

Enquiry: Form field: TGI recorded for O=C1C(Br)=CC2([N+](=O)[O-])CCNc3c(O)c4c5c(c3C2=C1Br)=NCCC=5C=N4 (stereo not drawn) with EKVX NSCLC (enter value)
Return: 7.43 µM

Enquiry: Form field: TGI recorded for Cc1cn(C2CC(n3cc(Cn4cc(F)c(=O)[nH]c4=O)nn3)C(CO)O2)c(=O)[nH]c1=O (stereo not drawn) with EKVX NSCLC (enter value)
Return: > 100 µM

Enquiry: Form field: TGI recorded for CC1OC(OCC2OC(Oc3c(-c4ccc(O)cc4)oc4cc(O)cc(O)c4c3=O)C(OC3OCC(O)(CO)C3O)C(O)C2O)C(O)C(O)C1O (stereo not drawn) with EKVX NSCLC (enter value)
Return: > 100 µM

Enquiry: Form field: TGI recorded for C=C1CC2(OC1=O)C(=O)N(CCCCCCCN1C(=O)C3(CC(=C)C(=O)O3)c3ccccc31)c1ccccc12 (stereo not drawn) with EKVX NSCLC (enter value)
Return: 19.3 µM

Enquiry: Form field: TGI recorded for COc1cc(C2CC(c3ccc(C)cc3)=NN2C=O)ccc1Oc1ccnc2cc(Cl)ccc12 (stereo not drawn) with EKVX NSCLC (enter value)
Return: > 50 µM

Enquiry: Form field: TGI recorded for N=C1C(c2nc(-c3ccc(Br)cc3)cs2)=C(O)CN1Cc1cccnc1 with EKVX NSCLC (enter value)
Return: > 100 µM

Enquiry: Form field: TGI recorded for COc1cc2c3cc1Oc1c(O)c(OC)cc4c1[C@H](Cc1ccc(cc1)Oc1cc(ccc1O)C[C@H]3N(C)CC2)N(C)CC4 with EKVX NSCLC (enter value)
Return: 48.1 µM

Hey, just so you know, these numbers are from PubChem BioAssay (NCI).
